# target_or_system: Orexin receptor type 2 (Homo sapiens)
# Sequence (O43614 whole entry): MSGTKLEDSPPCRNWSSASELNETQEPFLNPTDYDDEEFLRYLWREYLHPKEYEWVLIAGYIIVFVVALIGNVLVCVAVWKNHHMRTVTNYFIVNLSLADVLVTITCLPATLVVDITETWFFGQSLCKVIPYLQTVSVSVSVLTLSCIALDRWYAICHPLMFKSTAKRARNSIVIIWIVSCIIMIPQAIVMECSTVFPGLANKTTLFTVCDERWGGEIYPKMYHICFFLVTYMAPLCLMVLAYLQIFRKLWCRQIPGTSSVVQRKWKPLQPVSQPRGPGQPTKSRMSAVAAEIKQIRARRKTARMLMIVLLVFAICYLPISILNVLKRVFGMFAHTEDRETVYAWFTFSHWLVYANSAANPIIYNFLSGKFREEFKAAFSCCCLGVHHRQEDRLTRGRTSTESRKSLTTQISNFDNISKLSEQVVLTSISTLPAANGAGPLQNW
Examples of compounds with documented Ki follow.
Report as a plain number; the unit nM is understood.

Known results for compounds:
compound=Cc1ncc(OC[C@@]2(c3ccccc3)C[C@H]2C(=O)Nc2ccc(F)cn2)c(C)n1 readout_kind=Ki observed_value=7
compound=Cc1ccc(NC(=O)[C@@H]2C[C@@]2(COc2cnc(C)nc2C)c2ccccc2)nc1 readout_kind=Ki observed_value=34
compound=Cc1ncc(OC[C@@]2(c3ccccc3)C[C@H]2C(=O)Nc2cc(C)c(F)cn2)c(C)n1 readout_kind=Ki observed_value=4

*Q* Value lookup for Ki; key = "Cc1ncc(OC[C@@]2(c3ccc(F)c(F)c3)C[C@H]2C(=O)Nc2ccc(F)cn2)c(C)n1"
*A* 4

*Q* Value lookup for Ki; key = "Cc1ncc(OC[C@@]2(c3ccccc3)C[C@H]2C(=O)Nc2ccc(C#N)cn2)c(C)n1"
*A* 49

*Q* Value lookup for Ki; key = CCn1cc(OCC2(c3ccccc3)CC2C(=O)Nc2ccc(C#N)cn2)c(C)n1 (racemic)
*A* 10

*Q* Value lookup for Ki; key = "COCc1nc(C)ncc1OC[C@@]1(c2ccccc2)C[C@H]1C(=O)Nc1ccc(C#N)cn1"
*A* 9

*Q* Value lookup for Ki; key = "CCc1nc(C)ncc1OC[C@@]1(c2ccccc2)C[C@H]1C(=O)Nc1ccc(C#N)cn1"
*A* 7

*Q* Value lookup for Ki; key = "Cc1ncc(OC[C@@]2(c3ccccc3F)C[C@H]2C(=O)Nc2ccc(F)cn2)c(C)n1"
*A* 17
